Form field: EC50 (one value per entry).
- tested on: mouse TGR5 receptor (Mus musculus)
- Construct: host or cells: HEK293-EBNA (293 c18, ATCC CRL10852)
- Sequence (Q80SS6 1-329): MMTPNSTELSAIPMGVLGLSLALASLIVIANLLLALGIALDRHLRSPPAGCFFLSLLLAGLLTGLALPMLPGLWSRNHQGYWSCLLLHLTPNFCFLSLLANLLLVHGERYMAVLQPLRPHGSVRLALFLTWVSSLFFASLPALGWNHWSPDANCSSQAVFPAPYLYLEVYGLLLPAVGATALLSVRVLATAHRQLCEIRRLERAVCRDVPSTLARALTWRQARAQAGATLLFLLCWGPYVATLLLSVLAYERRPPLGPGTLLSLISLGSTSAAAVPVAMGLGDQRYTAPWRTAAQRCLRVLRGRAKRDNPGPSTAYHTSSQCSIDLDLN
- protocol: Mouse TGR5 HTRF cAMP production assay (HEK293-EBNA cells, Cisbio cAMP HiRange kit)
- Type: cell-based
- cond: HEK293-EBNA cells overexpressing mouse TGR5, HTRF cAMP assay

Answered examples (4):
N=C(N)NCCC[C@H](NC(=O)CCCC1CCN(c2cc(N3CCC[C@H]3C(=O)NCCc3ccc(C(F)(F)F)cc3)nc(C(F)(F)F)n2)CC1)C(=O)O [Compound 74]; < 100 nM
O=C(O)CCNC(=O)NCCC1CCN(c2cc(N3CCC[C@H]3C(=O)NCCc3ccc(-c4ccccn4)cc3)nc(C(F)(F)F)n2)CC1 [Compound 378]; 1000 to 30000 nM
N#Cc1ccc(CCNC(=O)[C@@H]2CCCN2c2cc(N3CCC(CCCC(=O)N[C@H](CCCNC(=N)N)C(=O)N[C@H](CCC(=O)O)C(=O)O)CC3)nc(C(F)(F)F)n2)cc1 [Compound 203]; < 100 nM
N#Cc1ccc(CCNC(=O)[C@@H]2CCCN2c2cc(N3CCC(CCCC(=O)NCCNC(=O)c4cc(NC[C@H](O)[C@@H](O)[C@H](O)[C@H](O)CO)ncn4)CC3)nc(C(F)(F)F)n2)cc1 [Compound 100]; < 100 nM

Next up:
Give its EC50 value. Item: N#Cc1ccc(CCNC(=O)[C@@H]2CCCN2c2cc(-c3ccc(CNC(=O)NCCCS(=O)(=O)O)cc3)nc(C(F)(F)F)n2)cc1 [Compound 193]
< 100 nM
